tested on: Calu-3; assay: drug sensitivity score (DSS) for viability; higher = more toxic; extreme values may be limits of the assay; conditions: 72 h
Result type: drug sensitivity score

molecule=Nc1ccc2ncnc(NCCc3ccc(Oc4ccccc4)cc3)c2c1 numeric_readout=0.3
molecule=CN1C(C(=O)Nc2ccccn2)=C(O)c2ccccc2S1(=O)=O numeric_readout=0
molecule=COc1cc(Cc2cnc(N)nc2N)cc(OC)c1OC numeric_readout=0
molecule=CCCCc1nc(-c2ccc(OCCCN(CC)CC)cc2)cn1-c1ccc(Oc2ccc(Cl)cc2)cc1 numeric_readout=5.2
molecule=Cc1cc(-c2ncc(CC(=O)Nc3ccc(-c4cnccn4)cn3)cc2C)ccn1 numeric_readout=0.8
molecule="O=C(Nc1ccccc1)OCC(CN1CCCCC1)OC(=O)Nc1ccccc1 (configuration not stated)" numeric_readout=0
molecule=COCC1=C(C(=O)O)N2C(=O)[C@@H](NC(=O)/C(=N\OC)c3csc(N)n3)[C@H]2SC1 numeric_readout=0

Reference source: the supplement of paper PMC13380429
